Where do the numbers come from? From ChEMBL document CHEMBL2074046.

- TARGET_ENTITY: Solute carrier family 22 member 1 (Rattus norvegicus, UniProt Q63089)
pIC50: −log10 of the molar value.
EXPERIMENTAL_READOUT: pIC50

| SMILES_INPUT | EXPERIMENTAL_VALUE |
| --- | --- |
| CCCC[N+](CCCC)(CCCC)CCCC | 5.52 |

----------
- TARGET_ENTITY: Solute carrier family 22 member 1 (Rattus norvegicus)
- Sequence (Q63089 whole entry): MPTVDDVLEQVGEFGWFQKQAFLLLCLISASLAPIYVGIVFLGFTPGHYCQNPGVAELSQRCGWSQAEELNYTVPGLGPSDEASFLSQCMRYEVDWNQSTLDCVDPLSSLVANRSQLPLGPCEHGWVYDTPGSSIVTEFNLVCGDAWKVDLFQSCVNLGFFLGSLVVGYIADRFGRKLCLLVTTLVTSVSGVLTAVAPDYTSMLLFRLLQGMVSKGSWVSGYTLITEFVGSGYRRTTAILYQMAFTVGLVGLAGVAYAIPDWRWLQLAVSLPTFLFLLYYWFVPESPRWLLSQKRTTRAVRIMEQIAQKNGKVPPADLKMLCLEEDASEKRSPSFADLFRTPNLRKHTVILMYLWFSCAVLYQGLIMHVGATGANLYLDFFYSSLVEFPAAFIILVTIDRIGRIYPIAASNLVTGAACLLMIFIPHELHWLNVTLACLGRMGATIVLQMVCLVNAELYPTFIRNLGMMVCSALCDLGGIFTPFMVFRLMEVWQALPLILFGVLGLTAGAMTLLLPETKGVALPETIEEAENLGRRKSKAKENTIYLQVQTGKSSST
- TEST_METHOD_NOTES: TP_TRANSPORTER: inhibition of MPP+ uptake (MPP+: 0.1 uM) in OCT1-expressing HEK293 cells
- Format: functional, cell-based
pIC50: −log10 of the molar value.

| SMILES_INPUT | pIC50 |
| --- | --- |
| CCCCC[N+](CCCCC)(CCCCC)CCCCC | 6.74 |
